src = the supplement of paper PMC10567573

B1: GLT8D2 (parent)
chain: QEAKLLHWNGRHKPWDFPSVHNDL

Variants of: B1
assay.comment: protein stability index of a GFP-peptide fusion (GPS, HEK-293T) (PSI 1-6); higher = more stable;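 note: lentivirally expressed fusions sorted by FACS into six bins by GFP to DsRed ratio, PSI derived from sequencing read proportions per bin multiplied by bin number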
test.settings: c terminus: a fixed tail appended
result.type: protein stability index
One number for each entry.

Completed entries (count: 5):
[[record]]
mutant_code = "R11T"
result_type = "protein stability index"
observed = 3.11

[[record]]
mutant_code = "K4V"
result_type = "protein stability index"
observed = 2.34

[[record]]
mutant_code = "D23E"
result_type = "protein stability index"
observed = 2.72

[[record]]
mutant_code = "H12I"
result_type = "protein stability index"
observed = 2.56

[[record]]
mutant_code = "H12W"
result_type = "protein stability index"
observed = 2.54


Kindly give each listed record's protein stability index.
1. P14A
2. S19Y
3. N9F
4. N9S
5. D16G

1: 2.62; 2: 2.12; 3: 1.98; 4: 2.67; 5: 2.39

Give protein stability index for all variants that follow.
1. P18C
2. P14C
3. R11P
4. V20M
5. N22R
6. F17V
7. K4C

2.6
2.06
2.33
2.43
2.35
3.18
2.3

Quick one: give me protein stability index for each item below, same order please.
1. H21F
2. D16M
3. H12K
4. Q1W
5. D23A

1. 2.75
2. 2.12
3. 2.73
4. 2.21
5. 1.96

Batch lookup, protein stability index per entry.
1. V20H
2. A3V
3. H21D
4. N22K
5. K4E

[2.77, 2.5, 3.39, 2.7, 3.28]
